Where a name gives a salt, the structure may show the parent alone.
endpoint_label: melting point

Req: Answer with reported melting point of COCCC(=O)NS(=O)(=O)c1ccc(-c2c(-c3ccccc3)noc2C)cc1
Resp: 139.7 to 140.9 °C

Req: Let me know recorded melting point for CC(=O)NCC(=O)NS(=O)(=O)c1ccc(-c2c(-c3ccccc3)noc2C)cc1 , thanks.
Resp: 218.2 to 219.3 °C

Req: Complete the entry with melting point for CC(=O)NS(=O)(=O)c1ccc(-n2nc(C(F)(F)F)cc2-c2ccc(Cl)cc2)cc1.[Na]
Resp: 269.8 to 272 °C

Req: Tell me measured melting point for Cc1onc(-c2ccccc2)c1-c1ccc(S(=O)(=O)NC(=O)C(C)C)cc1 please.
Resp: 115 to 115.6 °C

Req: Fill in reported melting point for this entry: CC(=O)NS(=O)(=O)c1ccc(-n2cc(C(F)(F)F)nc2-c2cccnc2C)cc1
Resp: 243 to 245 °C

Req: For the compound COC(=O)CCC(=O)NS(=O)(=O)c1ccc(-c2c(-c3ccccc3)noc2C)cc1 , give its measured melting point value.
Resp: 114.9 to 117.7 °C

Req: Please give the documented melting point of CCCC(=O)NS(=O)(=O)c1ccc(-c2c(-c3ccccc3)noc2C)cc1 (as salt: sodium) [Example 25]
Resp: 273.5 to 277.7 °C

====

Where a name gives a salt, the structure may show the parent alone.
endpoint_label: melting point

Req: Return melting point for the following compound: CC(=O)NS(=O)(=O)c1ccc(-c2c(-c3ccccc3)noc2C)cc1
Resp: 169.3 to 170.6 °C

Req: Entry CCC(=O)NS(=O)(=O)c1ccc(-c2c(-c3ccccc3)noc2CO)cc1.[Na] needs its melting point filled in; supply it.
Resp: 153.5 to 157.1 °C

Req: Return reported melting point. Input compound: CCCC(=O)NS(=O)(=O)c1ccc(-c2c(-c3ccccc3)noc2C)cc1 [Example 24]
Resp: 173.2 °C

Req: Using the record for CC(=O)[N-]S(=O)(=O)c1ccc(-n2cc(C(F)(F)F)nc2-c2cncc(C)c2)cc1.[Na+] , state its measured melting point.
Resp: 278 to 281 °C

Req: Identify the reported melting point for the following entry. Cc1onc(-c2ccccc2)c1-c1ccc(S(=O)(=O)NCC(=O)[O-])cc1.[Na+]
Resp: 216 °C (dec.)

Req: Item CC(=O)NS(=O)(=O)c1ccc(-n2cc(C(F)(F)F)nc2-c2cc(C)cc(Cl)c2)cc1 : provide melting point
Resp: 232 to 235 °C

Req: Given Cc1onc(-c2ccccc2)c1-c1ccc(S(=O)(=O)NCC(=O)O)cc1.O=C(O)O , respond with its melting point.
Resp: 242 to 248 °C

Req: Provide melting point value for the following compound: CC(=O)NS(=O)(=O)c1ccc(C2=C(c3ccc(F)c(Cl)c3)CCC2)cc1
Resp: 127 to 129 °C

Req: Given the compound CC(=O)NS(=O)(=O)c1ccc(-c2c(-c3ccccc3)noc2COC(C)=O)cc1 , write its reported melting point.
Resp: 137 to 139 °C

Req: Provide measured melting point value, entry: CCCC(=O)NS(=O)(=O)c1ccc(-c2c(-c3ccccc3)noc2C(F)F)cc1
Resp: 154.9 to 155.9 °C

Req: Please give measured melting point of the following entry: CCCC(=O)NS(=O)(=O)c1ccc(-n2cc(C(F)(F)F)nc2-c2cncc(C)c2)cc1
Resp: 203 to 204 °C

Req: Please give the documented melting point of CCC(=O)[N-]S(=O)(=O)c1ccc(-n2cc(C(F)(F)F)nc2-c2cccnc2C)cc1.[Na+]
Resp: 298 °C (dec.)

Req: Consider the compound CCC(=O)NS(=O)(=O)c1ccc(-c2c(-c3ccccc3)noc2C(F)F)cc1 . State its measured melting point.
Resp: 136.9 to 141 °C

Req: Quickly give me recorded melting point for Cc1onc(-c2ccccc2)c1-c1ccc(S(=O)(=O)NC(=O)CCC(=O)O)cc1
Resp: 158.4 to 165.4 °C

Req: Tell me its melting point given CCC(=O)NS(=O)(=O)c1ccc(-n2nc(C(F)(F)F)cc2-c2ccc(Cl)cc2)cc1 as the entry.
Resp: 77.9 to 85.1 °C

Req: Give recorded melting point. CC(=O)NS(=O)(=O)c1ccc(-c2oc(C)nc2-c2ccccc2)cc1 [Example 48]
Resp: 220.7 to 221 °C

Req: Output measured melting point for this item: CC(=O)NS(=O)(=O)c1ccc(-c2oc(C)nc2-c2ccccc2)cc1 (as salt: sodium) [Example 49]
Resp: 259.9 to 260 °C

Where do these numbers come from? They come from patent US6815460B2.
